Item-by-item account of TNF-α fold change
Tested on: TNF-α in RAW264.7 macrophage cells
Experiment: In vitro measurement of TNF-α in RAW264.7 macrophage cells (RT-qPCR)
Assay type: cell-based
Enter the number alone.

Example entries and their recorded answers appear below.
structure.smiles | TNF-α fold change
CS(=O)(=O)n1cc(/C=N/NC(=O)Nc2ccccc2)c2ccccc21 | 0.71
CS(=O)(=O)n1cc(/C=N/N=C2/NCC(=O)S2)c2ccccc21 | 0.66
Cc1ccc(NC(=S)N/N=C/c2cn(S(C)(=O)=O)c3ccccc23)cc1 | 0.19
COc1ccc(NC(=S)N/N=C/c2cn(S(C)(=O)=O)c3ccccc23)cc1 | 0.26

The compound identified as CCN1CC(=O)S/C1=N\N=C\c1cn(S(C)(=O)=O)c2ccccc12 registered its TNF-α fold change at 0.18

The value of TNF-α fold change measured for the compound Cc1ccc(N2C(=O)CSC2=NN=Cc2cn(S(C)(=O)=O)c3ccccc23)cc1 turned out to be 0.21

----------
Target: ovine COX-1 (Ovis aries, UniProt P05979)
Sequence (P05979 25-600): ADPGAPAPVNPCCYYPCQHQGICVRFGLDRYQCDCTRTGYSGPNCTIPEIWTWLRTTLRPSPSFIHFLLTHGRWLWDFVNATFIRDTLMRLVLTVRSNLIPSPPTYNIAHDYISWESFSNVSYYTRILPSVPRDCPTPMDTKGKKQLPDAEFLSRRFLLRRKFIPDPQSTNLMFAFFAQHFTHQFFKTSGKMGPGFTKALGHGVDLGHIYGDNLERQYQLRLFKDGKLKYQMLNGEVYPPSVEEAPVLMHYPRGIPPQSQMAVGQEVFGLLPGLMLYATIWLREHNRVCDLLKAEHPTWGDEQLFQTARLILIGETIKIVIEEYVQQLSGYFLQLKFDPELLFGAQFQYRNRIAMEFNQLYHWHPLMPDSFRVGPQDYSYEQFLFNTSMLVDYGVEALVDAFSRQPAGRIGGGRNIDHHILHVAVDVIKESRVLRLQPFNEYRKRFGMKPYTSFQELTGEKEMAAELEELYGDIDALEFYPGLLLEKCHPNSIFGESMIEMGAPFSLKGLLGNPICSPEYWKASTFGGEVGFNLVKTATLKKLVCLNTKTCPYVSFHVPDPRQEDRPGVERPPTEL
Experiment: COX-1 inhibition, enzyme immune assay (EIA) kit
Details: conc 100 (μM)
# key: entry, value: COX1 %inh
Response body: numeric value in %, unit text excluded.

compound | COX1 %inh (%)
CS(=O)(=O)n1cc(/C=N/NC(=O)Nc2ccccc2)c2ccccc21 [Compound 3b] | 68.5

// sample COc1ccc(NC(=S)N/N=C/c2cn(S(C)(=O)=O)c3ccccc23)cc1 [Compound 4e] , its COX1 %inh was 73.5

Memo: CS(=O)(=O)n1cc(/C=N/NC(N)=O)c2ccccc21 [Compound 3a] , reported COX1 %inh: 71

The value of COX1 %inh measured for the compound CS(=O)(=O)n1cc(/C=N/N=C2\SC(=O)CN2c2ccccc2)c2ccccc21 [Compound 5c] turned out to be 72.1

Summary for this compound, CCNC(=S)N/N=C/c1cn(S(C)(=O)=O)c2ccccc12 [Compound 4b] : COX1 %inh is 73.3

Entry CS(=O)(=O)n1cc(/C=N/NC(N)=S)c2ccccc21 [Compound 4a] ; COX1 %inh = 77.6

Quick note, COX1 %inh for COc1ccc(N2CC(=O)S/C2=N\N=C\c2cn(S(C)(=O)=O)c3ccccc23)cc1 [Compound 5e] landed at 68.5

The reported value for Cc1ccc(NC(=S)N/N=C/c2cn(S(C)(=O)=O)c3ccccc23)cc1 [Compound 4d] in terms of COX1 %inh is 75.8

----------
Molecular target: 5-LOX enzyme (Homo sapiens, UniProt P09917)
Construct: purchased Cayman Chemical K980-100
Sequence (P09917 whole entry): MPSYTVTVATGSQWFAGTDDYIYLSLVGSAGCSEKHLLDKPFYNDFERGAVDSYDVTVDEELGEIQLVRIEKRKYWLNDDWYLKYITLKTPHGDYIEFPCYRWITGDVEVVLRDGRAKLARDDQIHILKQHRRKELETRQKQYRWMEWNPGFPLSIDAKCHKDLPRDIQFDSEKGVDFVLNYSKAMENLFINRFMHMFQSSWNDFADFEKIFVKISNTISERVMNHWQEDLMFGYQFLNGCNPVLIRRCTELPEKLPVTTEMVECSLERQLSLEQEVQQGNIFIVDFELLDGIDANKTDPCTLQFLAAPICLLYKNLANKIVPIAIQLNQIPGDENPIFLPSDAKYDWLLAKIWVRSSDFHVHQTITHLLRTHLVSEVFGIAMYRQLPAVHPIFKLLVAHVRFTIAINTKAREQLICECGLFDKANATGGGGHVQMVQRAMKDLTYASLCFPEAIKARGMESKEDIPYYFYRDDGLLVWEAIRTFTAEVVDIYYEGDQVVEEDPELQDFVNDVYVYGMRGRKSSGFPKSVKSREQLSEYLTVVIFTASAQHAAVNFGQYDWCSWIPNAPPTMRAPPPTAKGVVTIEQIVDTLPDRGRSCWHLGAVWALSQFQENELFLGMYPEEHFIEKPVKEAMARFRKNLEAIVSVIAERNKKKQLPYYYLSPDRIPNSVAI
Assay: 5-LOX inhibition, Human Lipoxygenase Inhibitor Screening Assay (EIA) kit
Type: biochemical
Details: lab report
measured.metric: IC50 (µM)
Write down the numeric answer in µM and omit the unit.

See these solved cases before continuing.
compound | unit.spec | measured
COc1ccc(NC(=S)N/N=C/c2cn(S(C)(=O)=O)c3ccccc23)cc1 [Compound 4e] | µM | 4.08
COc1ccc(N2CC(=O)S/C2=N\N=C\c2cn(S(C)(=O)=O)c3ccccc23)cc1 [Compound 5e] | µM | 6.65
Cc1ccc(N2C(=O)CSC2=NN=Cc2cn(S(C)(=O)=O)c3ccccc23)cc1 [Compound 5d] | µM | 1.1
CS(=O)(=O)n1cc(/C=N/NC(=S)Nc2ccccc2)c2ccccc21 [Compound 4c] | µM | 4.03

Recorded IC50 for CS(=O)(=O)n1cc(/C=N/NC(N)=S)c2ccccc21 [Compound 4a] on 5-LOX enzyme (Homo sapiens, UniProt P09917) was 2.31

The reported measurements were obtained from paper PMC9721424.
